Reported IC50 for target or system 4-hydroxyphenylpyruvate dioxygenase (HPD) (Homo sapiens), by entry.
Reply numerically in nM, unit not repeated.

Quick one: IC50 for CS(=O)(=O)c1ccc(C(=O)C2C(=O)CCCC2=O)c(Cl)c1 [sulcotrione] ? 187

Quick one: IC50 for CS(=O)(=O)c1ccc(C(=O)C2C(=O)CCCC2=O)c([N+](=O)[O-])c1 [mesotrione] ? 396

# evaluate next
Quick one: IC50 for CS(=O)(=O)c1ccc(C(=O)C2C(=O)CCCC2=O)c(Cl)c1COCC(F)(F)F [tembotrione] ? 610
